- Test details: melting temperature; fluorescence melt of hairpins on a sequencing array, two-state fit, raised by 9.35 °C to match UV melts
- Condition summary: sodium 0.088 M
Tm under 50 °C gets condition met, anything at or over 50 °C gets condition not met.

Reference set (5 entries):
GCCTAATCGAAAGATGGC (((..(((....)))))) = condition met
GATCTGGAGACAGATC ((((((....)))))) = condition not met
GCTGAGCGAAAGCACGGC ((.(.((....)).).)) = condition not met
GCCAGCGCGAAAGCGGGC (((..(((....)))))) = condition not met
GGTATCTCGAAAGAGACC (((..(((....)))))) = condition met

q: Problem: For the sequence GATCGTTGCTACGATC ((((((....)))))) , is Tm under 50 °C?
a: condition not met

q: Problem: For the sequence CCTTTGAAAAAAGG (((((....))))) , is Tm under 50 °C?
a: condition met

---

Exercise: for every item that follows, state its recorded folding enthalpy.
- Test details: folding enthalpy; higher = less favourable; fluorescence melt of hairpins on a sequencing array, two-state fit
- Condition summary: sodium 0.088 M

Look over these answered cases.
GTATCTGGAAACAGGTAC (((.(((....))).))) = -36.2 kcal/mol
GCCATCGAAAGATTCGGC ((((((....)))..))) = -21 kcal/mol

Below are some sequences; for each one, tell me its folding enthalpy.
1. GCGCCGCGAAAGCCGTGC ((.(.((....)).).))
2. GAACGGGGAAACCCATTC (((.(((....))).)))
3. CGGAACCGGAAACGGCCG (((..(((....))))))
4. GATCGAACATTCGATC ((((((....))))))
5. GATCTATCCTAGATC ((((((...))))))
6. GCGCAACGAAAGTTCGC (((.(((....))))))

a:
1: -20.5 kcal/mol; 2: -19 kcal/mol; 3: -23.2 kcal/mol; 4: -38.5 kcal/mol; 5: -30.6 kcal/mol; 6: -32 kcal/mol

Below are some sequences; for each one, tell me its folding enthalpy.
1. GATCAAATCCTTGATC ((((((....))))))
2. GAGTACGAAAGTAGGCTC ((((((....)))..)))
3. GTACGAGCGAAAGCTTAC (((..(((....))))))
4. GCAAAGCGAAAGCCTCGC ((.(.((....)).).))
5. CGGCACCGGAAACGGCCG (((..(((....))))))
6. GATCTTGGCAAGATC ((((((...))))))
7. GGTGGCGAAAGCCATACC ((((((....)))..)))
8. GCGAAGCGAAAGCAACGC (((..((....))..)))

a:
["-35.8 kcal/mol", "-19.6 kcal/mol", "-8.2 kcal/mol", "-7.59 kcal/mol", "-29.1 kcal/mol", "-46.1 kcal/mol", "-12 kcal/mol", "-11 kcal/mol"]

---

- Test details: melting temperature; fluorescence melt of hairpins on a sequencing array, two-state fit, raised by 9.35 °C to match UV melts
- Condition summary: sodium 0.088 M
Quantity kind: Tm (°C)
Numbers only, in °C.

Look over these answered cases.
CGCGCGGAAACGCCGCG ((((((....))).))) = 69.2
GCGGCGCCCCGC ((((....)))) = 52.7
GACCCACGAAAGTGTGTC (((.(((....))).))) = 48.9
GATCTTTTACAAGATC ((((((....)))))) = 42.8
GGTAGGCGAAAGCCCACC (((.(((....))).))) = 51.9

Below are some sequences; for each one, tell me its Tm.
1. GATCACACGAAAGTGATC (((..(((....))))))
2. GACGAAGGAAACCTCGTC (((((.(....).)))))
3. GAGGACGAAAGTCTACTC ((((((....)))..)))

a:
[48.8, 46, 36.8]

Below are some sequences; for each one, tell me its Tm.
1. GTGCCAGGAAACCAGCAC ((((..(....)..))))
2. GGTTCGGGAAACTGAACC (((((.(....).)))))

a:
1: 41.5; 2: 53.2

Below are some sequences; for each one, tell me its Tm.
1. GGATACCGAAAGGTTTCC (((.(((....))).)))
2. GATCGTTTTGACGATC ((((((....))))))

a:
[50.2, 57.2]
